The values you see were collected from patent US5068064A.

Test system: Staphylococcus aureus CIP 53154
Experiment: Minimum bactericidal concentration, first method (30 min contact), S. aureus
Type: cell-based
Conditions: CIP53154, 0.5 h, contact time 30 minutes
Structures can show the parent of a compound that is named as a salt.
readout kind: MBC (µg/mL)
One number for each entry, in µg/mL.

In the examples that follow, each entry is paired with its recorded MBC.
- compound: "CCCCCCCCCCCC(=O)NCCCN1CCC(Cc2ccccc2)CC1"
  number: 10
- compound: "CCCCCCCCCCCC(=O)NCCN1CCC(Cc2ccccc2)CC1.Cl"
  number: 10
- compound: "CCCCCCCCCCCC(=O)NCCN(C)Cc1ccccc1"
  number: 50
- compound: "CCCCCCCCCCCC(=O)NCCCN(C)Cc1ccccc1 [SR 45583 A, hydrochloride]"
  number: 50

Turning to the following compound.
Entry CCCCCCCCCCCC(=O)NCCN(C)C [D1, reference compound] : reported MBC = ?
50
